- target.or.system: CA IX catalytic domain protein (CA9-CD) (human, UniProt Q16790 138-391)
- procedure.details: ELISA on CA9-CD (catalytic domain)

{"binder": "AB-MN-22.14 (antibody, human IgG2, V domains shown, also called AX014H22-14) VH: QVQLQESGPGLVKPSETLSLTCTVSGGSVISGGYYWSWIRQPPGKGLEWIGYIYYSGSSNYNPSLKSRVTISVDASKNQFSLRLSSVTAADTAVYYCARSMVRGVSFDYWGQGTLVTVSS VL: DIQMTQSPSSLSASVGDRVTITCRASQGIRNDLGWYQQKPGKAPKRLIYAASSLQSGVPSRFSGSGSGTEFTLTISSLQPEDFATYYCLQHNSYPLTFGGGTKVEIK", "unit.symbol": "OD", "OD": 2.03}
{"binder": "AB-MN-22.20 (antibody, human IgG2, V domains shown, also called AX014H22-20) VH: QVQLQESGPGLVKPSQTLSLTCTVSGGSISSGGSYWTWIRQHPGKGLEWIGYIYYSGNTYYNPSLKSRVTISVDTSKNQFSLKLSSVTAADTAVYYCARTYYDILTGYPDAFDIWGQGTMVTVSS VL: DIQMTQSPSSLSASVGDRVTITCRASQGIRNDLGWYQQKPGKAPKRLIYAASSLQSGVPSRFSGSGSGTEFTLTISSLQPEDFTTYYCLQYKSYPWTFGQGTKVEIK", "unit.symbol": "OD", "OD": 2.71}
{"binder": "AB-MN-21.2.1 (antibody, human IgG1, V domains shown, also called AX014H21-2-1) VH: QVQLQESGPGLVKPSQTLSLTCTVSGGSISSGGYYWNWIRQHPGKGLEWIGYIYYSGSTYYNPSLKSRVTISVDTSKNQFSLKLSSVTAADTAVYYCARTYYDILTGYPDAFDIWGQGTMVTVSS VL: DIQMTQSPSSLSASVGDRVTITCRASQDIRNDLGWYQQKPGKAPKRLICAASSLQSGVPSSFSGSGSGTEFTLTISSLQPEDFATYYCLQHNSYPWTFGQGTKVEIK", "unit.symbol": "OD", "OD": 2.48}
{"binder": "AB-MN-21.14.1 (antibody, human IgG1, V domains shown, also called 21.14.1 j; AX014H21-14-1) VH: QVQLQESGPGLVKPSETLSLTCTVSGGSISSYYWSWIRQPPGKGLEWIGYIYYSGSTNYNPSLKSRVTISVDTSKNQFSLKLSSVTAADTAVYYCARRGYDFLTGYDYFDYWGQGTLVTVSS VL: DIQMTQSPSSVSASVGDRVTITCRASQGISSWLAWFQQKPGKAPKLLIYAASSLQSGVPSRFSGSGSGTDFTLTISSLQPEDFATYYCQQANSFPITFGQGTRLEIK", "unit.symbol": "OD", "OD": 2.47}
{"binder": "AB-MN-22.30 (antibody, human IgG2, V domains shown, also called AX014H22-30) VH: QVQLVESGGGVVQPGRSLRLSCAASGFTFSSYAMHWVRQAPGKGLEWVAVIWYDGSTKYYADSVKGRFTISRDNSKNTLYLQMNSLRAEDTAVYYCARDRGLLWFGELSPHYGMDVWGQGTTVTVSS VL: DIQMTQSPSSLSASVGDRVTITCRASQGIRNDLGWYQQKPGKAPKRLIYAASSLQSGVPSRFSGSGSGTDFTLTISSLQPEDFATYYCLQHYSYPLTFGGGTKVEIK", "unit.symbol": "OD", "OD": 2.46}
